Recorded ABCB11 mRNA FC (5 μM ASO vs. UNT), one value per entry.
Test system: human ABCB11 mRNA
Test: ASO treatment of primary human hepatocytes (PHH), ABCB11 mRNA by RT-qPCR normalized to B2M
Type: cell-based
Details: primary human hepatocytes, 5 μM ASO, normalized to untreated PHHs (UNT)
Strand notation (5' to 3'): a small letter for the sugar, then the base; units joined by * are phosphorothioate-linked, units joined directly phosphodiester-linked; [ ] holds rarer units or linkages, { } end groups; capitals alone tell only the bases. e = 2'-O-(2-methoxyethyl) (MOE); l = locked nucleic acid (LNA); [5mC] = 5-methylcytosine; d = 2'-deoxy (DNA)
readout: ABCB11 mRNA FC (5 μM ASO vs. UNT) (fold change)

- substance: "CO-7009 (antisense eT*eG*eT*eG*eG*eA*eT*dG*dT*dA*dGdA*dT*dG*dA*dA*dT*eG*eG*e[5mC]*eA*eA*eG*eG)"
  unit label: "fold change"
  value reported: 1.289
- substance: "CO-6966 (antisense eA*eT*eG*eA*eA*eT*eG*eG*e[5mC]*eA*eA*eG*eG*eA*eG*eA*eG*eG*eA*eT)"
  unit label: "fold change"
  value reported: 1.177
- substance: "CO-7068 (e[5mC]*eA*eT*eT*eT*lA*dG*dA*lG*dA*d[5mC]*lA*dA*dA*lG*eA*eA*eT*e[5mC]*eG; antisense)"
  unit label: "fold change"
  value reported: 1.077
- substance: "CO-7058 (antisense eT*e[5mC]*eT*eG*eG*lA*dA*dA*lA*dT*dA*lA*dT*dG*l[5mC]*e[5mC]*eT*eT*eT*e[5mC])"
  unit label: "fold change"
  value reported: 1.052

---

Test system: human ABCB11 mRNA
Test: ASO treatment of primary human hepatocytes (PHH), ABCB11 mRNA by RT-qPCR normalized to B2M
Format: cell-based
Settings: primary human hepatocytes, 5 μM ASO, normalized to untreated PHHs (UNT)
Strand notation (5' to 3'): a small letter for the sugar, then the base; units joined by * are phosphorothioate-linked, units joined directly phosphodiester-linked; [ ] holds rarer units or linkages, { } end groups; capitals alone tell only the bases. e = 2'-O-(2-methoxyethyl) (MOE); l = locked nucleic acid (LNA); [5mC] = 5-methylcytosine; d = 2'-deoxy (DNA)

- substance: "CO-6672 (antisense eA*eG*eG*eA*e[5mC]*eA*e[5mC]*eA*eA*eT*eT*eT*e[5mC]*eT*eG*eT*eA*eG*eT*eT)"
  target or system: "human ABCB11 mRNA"
  unit label: "fold change"
  ABCB11 mRNA FC (5 μM ASO vs. UNT): 1.391
- substance: "CO-4028 (antisense eT*eT*eA*eA*e[5mC]*eT*e[5mC]*eT*eT*eA*e[5mC]*eT*eT*eT*eG*eT*eG*eG*eA*eG)"
  target or system: "human ABCB11 mRNA"
  unit label: "fold change"
  ABCB11 mRNA FC (5 μM ASO vs. UNT): 1.418
- substance: "CO-4021 (antisense eG*eT*e[5mC]*eT*eT*e[5mC]*eT*eT*eT*eA*eT*eA*eG*e[5mC]*eA*eA*eT*eG*e[5mC]*eT)"
  target or system: "human ABCB11 mRNA"
  unit label: "fold change"
  ABCB11 mRNA FC (5 μM ASO vs. UNT): 1.301
- substance: "CO-4016 (antisense eT*eT*eT*eT*eA*eA*e[5mC]*eT*eT*eG*eG*e[5mC]*eT*eT*eT*eG*eT*eG*eA*eA)"
  target or system: "human ABCB11 mRNA"
  unit label: "fold change"
  ABCB11 mRNA FC (5 μM ASO vs. UNT): 1.294
- substance: "CO-7157 (antisense eG*eT*eG*eG*eA*dG*d[5mC]*dA*dA*dA*d[5mC]*dT*dA*dG*dG*e[5mC]*eA*e[5mC]*eT*eG)"
  target or system: "human ABCB11 mRNA"
  unit label: "fold change"
  ABCB11 mRNA FC (5 μM ASO vs. UNT): 1.195
- substance: "CO-4052 (antisense e[5mC]*e[5mC]*eA*eG*eG*eG*eT*eG*e[5mC]*eA*eA*eG*eA*eG*eT*eT*eG*eT*e[5mC]*eT)"
  target or system: "human ABCB11 mRNA"
  unit label: "fold change"
  ABCB11 mRNA FC (5 μM ASO vs. UNT): 1.054
- substance: "CO-4054 (antisense e[5mC]*eG*eT*eT*e[5mC]*eA*eT*e[5mC]*eT*eT*eT*eG*e[5mC]*eT*eT*eA*eT*eA*e[5mC]*eA)"
  target or system: "human ABCB11 mRNA"
  unit label: "fold change"
  ABCB11 mRNA FC (5 μM ASO vs. UNT): 1.269
- substance: "CO-7093 (eA*e[5mC]*l[5mC]*e[5mC]*e[5mC]*l[5mC]*e[5mC]*eT*l[5mC]*eA*e[5mC]*l[5mC]*eT*eT*lG*eG*eT*lT*e[5mC]*e[5mC]; antisense)"
  target or system: "human ABCB11 mRNA"
  unit label: "fold change"
  ABCB11 mRNA FC (5 μM ASO vs. UNT): 1.269
- substance: "CO-6974 (antisense eT*eG*eG*eG*eA*eA*eG*eT*eT*eT*eA*eA*eA*eA*eA*eA*eT*eG*eG*eG)"
  target or system: "human ABCB11 mRNA"
  unit label: "fold change"
  ABCB11 mRNA FC (5 μM ASO vs. UNT): 1.394
- substance: "CO-7017 (antisense eA*eA*eG*eT*eG*eA*eG*dG*d[5mC]*dA*dT*d[5mC]*dA*dG*dG*dT*dA*eA*eG*eT*eT*e[5mC]*e[5mC]*eT)"
  target or system: "human ABCB11 mRNA"
  unit label: "fold change"
  ABCB11 mRNA FC (5 μM ASO vs. UNT): 1.182
- substance: "CO-7002 (antisense eG*eT*eG*lA*eG*eG*e[5mC]*lA*eT*e[5mC]*eA*lG*eG*eT*eA*lA*eG*eT*eT*e[5mC])"
  target or system: "human ABCB11 mRNA"
  unit label: "fold change"
  ABCB11 mRNA FC (5 μM ASO vs. UNT): 1.367
- substance: "CO-6989 (antisense eT*eG*lG*eA*lT*eG*lT*eA*lG*eA*lT*eG*lA*eA*lT*eG*lG*e[5mC]*eA*eA)"
  target or system: "human ABCB11 mRNA"
  unit label: "fold change"
  ABCB11 mRNA FC (5 μM ASO vs. UNT): 1.469
- substance: "CO-6993 (antisense eT*eG*eG*eA*eT*lG*eT*eA*eG*eA*lT*eG*eA*eA*eT*lG*eG*e[5mC]*eA*eA)"
  target or system: "human ABCB11 mRNA"
  unit label: "fold change"
  ABCB11 mRNA FC (5 μM ASO vs. UNT): 1.209

---

Tested on: human ABCB11 mRNA
Assay: ASO treatment of primary human hepatocytes (PHH), ABCB11 mRNA by RT-qPCR normalized to B2M
Format: cell-based
Conditions: primary human hepatocytes, 5 μM ASO, normalized to untreated PHHs (UNT)
Strand notation (5' to 3'): a small letter for the sugar, then the base; units joined by * are phosphorothioate-linked, units joined directly phosphodiester-linked; [ ] holds rarer units or linkages, { } end groups; capitals alone tell only the bases. e = 2'-O-(2-methoxyethyl) (MOE); l = locked nucleic acid (LNA); [5mC] = 5-methylcytosine
Recorded ABCB11 mRNA FC (5 μM ASO vs. UNT), one value per entry.
readout: ABCB11 mRNA FC (5 μM ASO vs. UNT)

- substance: "CO-4526 (antisense eG*e[5mC]*eT*eT*eG*eT*eG*eA*eT*eG*eT*e[5mC]*e[5mC]*eA*eG*eA*eT*eG*eA*e[5mC])"
  value reported: "1.048 fold change"
- substance: "CO-4519 (antisense eA*eG*eA*e[5mC]*eT*eG*eG*e[5mC]*eA*eT*eGeT*eG*eG*e[5mC]*eT*eT*e[5mC]*eA*e[5mC])"
  value reported: "1.061 fold change"
- substance: "CO-4510 (antisense eG*e[5mC]*e[5mC]*eA*e[5mC]*eA*e[5mC]*eG*eT*eT*eT*e[5mC]*eT*eT*eA*eT*eT*eG*e[5mC]*eG)"
  value reported: "1.084 fold change"
- substance: "CO-7030 (antisense AGAATCGCTGTGGCAGTTAA; fully 2'-MOE, mixed PS/PO, 5-methylcytosine; listed as RNA; modified_base 1..20: mod_base = OTHER; note = Phosphorothioate linkage; note = 2'-O-(2-methoxyethyl) ribonucleotide; modified_base 6: mod_base = OTHER; note = 5-methyl cytidine; modified_base 8: mod_base)"
  value reported: "1.372 fold change"
- substance: "CO-7062 (eT*e[5mC]*lT*eG*lG*eA*lA*eA*lA*eT*lA*eA*lT*eG*l[5mC]*e[5mC]*lT*eT*eT*e[5mC]; antisense)"
  value reported: "1.218 fold change"
- substance: "CO-7014 (antisense eA*eG*eT*eG*eA*eG*eG*e[5mC]*eA*eT*e[5mC]*eA*eG*eG*eT*eA*eA*eG*eT*eT*e[5mC]*e[5mC])"
  value reported: "1.293 fold change"
- substance: "CO-7042 (antisense e[5mC]*eT*eT*eG*eG*eT*e[5mC]*eA*eA*eG*eA*eG*eG*eA*eA*eA*eG*eA*eA*e[5mC])"
  value reported: "1.132 fold change"
- substance: "CO-3997 (antisense eG*e[5mC]*eT*eG*eT*eG*e[5mC]*eT*e[5mC]*eT*eG*eT*eA*eA*e[5mC]*eA*e[5mC]*eT*eG*eT)"
  value reported: "1.501 fold change"
- substance: "CO-4506 (antisense eT*eG*e[5mC]*eA*eT*eT*eG*e[5mC]*eA*eT*eG*eT*eT*eG*eA*eG*e[5mC]*eT*eG*eG)"
  value reported: "1.169 fold change"
- substance: "CO-3993 (antisense eG*e[5mC]*e[5mC]*e[5mC]*e[5mC]*eT*eT*eG*eA*eA*eT*eA*eA*eT*eT*eT*eT*eT*eG*eT)"
  value reported: "1 fold change"
- substance: "CO-7055 (antisense eT*e[5mC]*eA*e[5mC]*e[5mC]*e[5mC]*e[5mC]*e[5mC]*e[5mC]eT*e[5mC]*eA*e[5mC]*e[5mC]*eT*eT*eG*eG*eT*eT)"
  value reported: "1.498 fold change"
